The origin of these recorded values is ChEMBL document CHEMBL3286247.

Catalogue of molecules with associated MIC
- System: Pseudomonas aeruginosa
- protocol: Antibacterial activity against Pseudomonas aeruginosa YY165 deltamexB mutant assessed as growth inhibition after 20 hrs by microdilution method
- Format: functional
- statedConditions: YY165, 20 h

CCCCCCCCCCCCCCC[C@H](NC(=O)c1cccnc1)C(=O)NCCCN[C@H](C(=O)O)[C@H](O[C@@H]1O[C@H](CN)[C@@H](O)[C@H]1O)[C@H]1O[C@@H](n2ccc(=O)[nH]c2=O)[C@H](O)[C@@H]1O    > 64 µg/mL
CCCCCCCCCCCCCCC[C@H](NC(=O)[C@H](CCCN)NC(=O)N[C@H](C(=O)O)C(C)C)C(=O)NCCCN[C@H](C(=O)O)[C@H](O[C@@H]1O[C@H](CN)[C@@H](O)[C@H]1O)[C@H]1O[C@@H](n2ccc(=O)[nH]c2=O)[C@H](O)[C@@H]1O    > 64 µg/mL
CCCCCCCCCCCCCCC[C@H](N)C(=O)NCCCN[C@H](C(=O)O)[C@H](O[C@@H]1O[C@H](CN)[C@@H](O)[C@H]1O)[C@H]1O[C@@H](n2ccc(=O)[nH]c2=O)[C@H](O)[C@@H]1O    32 µg/mL

Alright, here's another molecule for you.
Measured MIC, CC(C)CCCC(=O)N[C@@H](CCCNC(=N)N)C(=O)NCCCN[C@H](C(=O)O)[C@H](O[C@@H]1O[C@H](CN)[C@@H](O)[C@H]1O)[C@H]1O[C@@H](n2ccc(=O)[nH]c2=O)[C@H](O)[C@@H]1O : > 64 µg/mL
